- Test system: NCI-H226 lung
- PROTOCOL_SUMMARY: NCI-60 one-dose screen, 48 h
- SETTINGS: 10 µM unless noted
- Experimental: Growth inhibition of the NCI-H226 human Non-Small Cell Lung tumor cell line is measured as a screen for anti-cancer activity. Cells are grown in 96 well plates and exposed to the test compound for 48 hours. Compounds are tested at a single concentration, which is 10^-5 M for most compounds. The reported endpoint is percent growth (GI% or GIPRCNT), where numbers from 0 - 100% represent growth inhibition, and numbers from -100% - 0 represent cell death. […]
About 83,000 compounds went through this panel and 20% of them were active in at least one assay; those are over-represented in the sample as a whole. Active and inactive are the calls of the source. The calls were made as follows: active = growth percent below 10; inactive = the rest.
Hello, when you answer, please use one of the following outcomes: T = active, F = inactive

What did the test return for `CN(CCNCc1ccccn1)CCNCc1ccccn1` ? T

More entries:
Test call for this compound, please: `Cn1cnc([N+](=O)[O-])c1N1c2ccncc2Sc2ccncc21` F

I'd appreciate the recorded outcome for `CC(C)[C@@H]1NC(=O)[C@]2(C)CSC(=N2)c2ccnc(c2)CNC(=O)C[C@@H](/C=C/CCS)OC1=O` from this test. F

What call does the record list for `C=C1C(=O)O[C@H]2[C@H]1CC/C(CNC(=O)/C1=C/CC[C@@]3(C)O[C@H]3[C@H]3OC(=O)C(=C)[C@@H]3CC1)=C\CC[C@@]1(C)O[C@@H]21` ? F

----------
- System: MALME-3M melanoma
- PROTOCOL_SUMMARY: NCI-60 one-dose screen, 48 h
- SETTINGS: 10 µM unless noted
The panel holds about 83,000 compounds, 20% with a hit somewhere; the sample as a whole holds those more often. Active and inactive are the calls of the source. Rule for the calls: active = growth percent below 10; inactive = the rest.
Hello, when you answer, please use one of the following outcomes: 1 (yes) (active), 0 (no) (inactive)

Consider the following illustrative entries.
Which outcome was entered for the compound `CNCCCOc1c(Br)cc(CCNC(=O)/C(Cc2cc(Br)c(OC)c(Br)c2)=N/O)cc1Br` in this test? 1 (yes)

I would be grateful if you could indicate the recorded call for `CCCCCCCCCCCCCCCC(=O)NS(=O)(=O)OC[C@H]1O[C@@H](n2cnc3c(N)ncnc32)[C@H](O)[C@@H]1O` . 1 (yes)

I'd appreciate the recorded outcome for `O=C(NCCNc1nccc(-c2c(-c3cccc(O)c3)nc3sccn23)n1)c1ccccc1O` from this test. 0 (no)

Lab log entry: `COc1ccc(Cl)cc1NC(=O)c1cc2c([nH]1)-c1nc(N)sc1CCC2` — outcome as called in the assay? 0 (no)

Please share the test call associated with COCCNC(C(=O)c1ccccc1)c1ccccc1 (configuration not stated) . 0 (no)

---
Record lookup: outcome of this test for `O=C1OC(c2ccc(-c3ccccc3)cc2)=C/C1=C/C=C/c1ccccc1` ? 0 (no)

Test call for this compound, please: `COc1cccc(-c2nc3sccn3c2-c2ccnc(NCCNC(=O)Nc3cccc(C(F)(F)F)c3)n2)c1` 0 (no)

----------
- Tested on: SR leukemia
- PROTOCOL_SUMMARY: NCI-60 one-dose screen, 48 h
- SETTINGS: 10 µM unless noted
About 83,000 compounds went through this panel and 20% of them were active in at least one assay; those are over-represented in the sample as a whole. Activity calls are given as the source filed them. How the source made its calls: active means growth percent below 10; inactive means the rest.
Choose the fitting class; nothing outside y = active, n = inactive is accepted.

Could you kindly confirm the outcome this assay logged for `COc1ccc(-c2nn(-c3ccc(NC(=O)Nc4cc(C(F)(F)F)cc(C(F)(F)F)c4)cc3)cc2-c2ccncc2)cc1Cl` ? y

Please let me know the test result on file for `CCOC(=O)c1cnc2c(OC)ccc(OC)c2c1Cl` . n

Just curious, what result did `O=C(O)c1cccc(S(=O)(=O)c2ccccc2)c1` get here? n

Look up the recorded call for `O=C(Nc1ccc(-n2ccc3c(NC(=O)c4ccccc4)ncnc32)cc1)Nc1ccc(Cl)c(Cl)c1` in this test. y

So what was the verdict on `NS(=O)(=O)c1ccc(-n2nc(-c3ccc(Cl)cc3)ccc2=O)cc1` in this test? n

Dear colleague, could you share the recorded outcome for `C=C1C(=O)O[C@H]2[C@H]1CC/C(COC(=O)c1cc(OC)c(OC)c(OC)c1)=C\CC[C@@]1(C)O[C@@H]21` when you have a moment? y

Outcome? `COc1cc(C(=O)NNC(=O)c2ccccc2O)cc(OC)c1OC` n

Fill in: this test's call for `Cc1cc(Nc2ccc(Cl)c(Cl)c2)nc(N)n1` is ___ n

Others:
Kindly provide the recorded test outcome for the following compound: `FC(F)(F)c1cccc([Si](F)(c2cccc(C(F)(F)F)c2)c2cccc(C(F)(F)F)c2)c1` n

Per the assay record, what outcome was assigned to `Cc1nc(N)nc(SCc2ccccc2)c1Br` ? n

----------
- System: T-47D breast
- PROTOCOL_SUMMARY: NCI-60 one-dose screen, 48 h
- SETTINGS: 10 µM unless noted
The panel holds about 83,000 compounds, 20% with a hit somewhere; the sample as a whole holds those more often. Activity calls are given as the source filed them. The calls were made as follows: active = growth percent below 10; inactive = the rest.
Reply using exactly one outcome from Yes = active, No = inactive

# lookup: test call for `O=C(Cn1c2ccccc2c2ccncc21)N/N=C/c1c[nH]c2ccccc12` No

Please state the recorded outcome for this compound: COc1ccc(C[C@H](N)C(=O)N[C@@H]2[C@@H](CO)OC(n3cnc4c(N(C)C)ncnc43)[C@@H]2O)cc1 (some centres not stated) Yes

Test call, this compound: CCOC(=O)C1CSC(C)(C(=O)OCC)N1 (configuration not stated) No

Name the outcome recorded for `CC(=O)Nc1ccc([I+]c2ccc([N+](=O)[O-])cc2)cc1` in the assay. No

Please let me know the test result on file for `COc1ccc(/C=C/C(=O)/C=C(/C=C/c2ccc(OC)c(OC)c2OC)OB(F)F)c(OC)c1OC` . No

So what was the verdict on `COc1cccc(-c2nc3sccn3c2-c2ccnc(NCCNC(=O)c3ccccc3)n2)c1` in this test? No

Could you please tell me the result logged for `COc1ccc(/C(Cl)=N/N=C(\Cl)c2cc(OC)c(OC)c(OC)c2)cc1OC(C)=O` in this assay? No

Check the results log: what was the call for CCC1S/C(=N\N=C(/C)c2ccco2)N(c2ccccc2)C1=O (configuration not stated) ? No

***
Record request — test call for Cc1ccc2oc(=O)cc(C3C(C#N)=C(N)Oc4c3ccc3ccccc43)c2c1 (configuration not stated) No

// return assay outcome for CC(C(=O)O)N1C(N)=NNC1c1ccccc1O (configuration not stated) No

Any idea what this test logged for `CCCCCCCCCCCCCCCCNc1ccccc1` ? No

Hey, what did the test say about Cc1cc(C)c(O)c(C(=O)CC(Br)C(=O)O)c1 (configuration not stated) ? No

Outcome logged for `COc1cc2ncnc(Oc3ccc(NC(=O)Nc4ccc(C5(C#N)CCCC5)cc4)c4ccccc34)c2cc1OC` in this assay: No

Field: outcome | Entry: `Nc1nccc2c1ccn2-c1ccc(NC(=O)c2ccc(N3CCOCC3)c(C(F)(F)F)c2)cc1` No

What outcome does the record of this test show for CC12CCC3C(CCC4CC(O)CCC43C)C1C/C(=C/O)C(=O)O2 (configuration not stated) ? No

Give the logged outcome of this assay for the following compound: `C/C(=N\N=C1/SCC(=O)N1c1ccccc1)c1ccco1` No

Record lookup: outcome of this test for `CC1(C)N=C(N)N=C(N)N1c1ccc(OCC(=O)Nc2ccccc2)c(Cl)c1` ? No

Dear colleague, could you share the recorded outcome for `O=C(O)c1ccc(-n2cc(/C=N/Nc3ccccc3F)c(-c3ccc(O)cc3)n2)cc1` when you have a moment? No

----------
- Tested on: OVCAR-8 ovarian
- PROTOCOL_SUMMARY: NCI-60 one-dose screen, 48 h (100 = growth as untreated, 0 = no growth, -100 = all killed)
- SETTINGS: 10 µM unless noted
Compounds without any hit were thinned out: in the full panel of roughly 83,000, 20% have a hit.
Record YES whenever growth is at 90% or higher; record NO when lower.

Here are 3 molecules together with their reported answers.
Threshold query (growth >= 90%) on CCOC(=O)C1CN(Cc2ccccc2)C(=O)C1=O (stereo unspecified) YES

Item `Cc1c(Cl)ccc2c(C(=O)Cl)cc(-c3ccccc3)nc12` with growth of 90% or above? YES

hey, is growth for this one >= 90%? `CCc1c(C)c2cc(-n3c(-c4ccc(OC)cc4)csc3=N)c(O)c(C)c2oc1=O` NO

Next:
Please indicate if the recorded growth for `Cc1nssc1=S` meets or exceeds 90%. YES

// inclusive: growth at least 90%? input: `O=C(Nc1ccc(-n2cc(-c3ccncc3)c(-c3ccc(O)c(Cl)c3)n2)cc1)c1cc(Cl)cc(Cl)c1` NO

Assess whether reported growth for Nc1ncnc2c1ncn2C1OC(COC(c2ccccc2)(c2ccccc2)c2ccccc2)C(O)C1O (stereo unspecified) sits at 90% or higher. YES

Check the entry `COc1ccc(C(=O)NC(=O)Nc2ccc3c(c2)NC(=O)/C3=C\c2[nH]c(C)c(C(=O)O)c2C)cc1` : does growth equal or exceed 90%? NO

Does the molecule CCC(N)(C(=O)O)c1ccc(F)cc1 (stereo unspecified) have recorded growth that is 90% or more? YES

Hi, just wondering whether `Nc1nc(-c2cc3c(cc2Cl)NC(=O)/C3=C/c2ccc(Cl)cc2)cs1` shows growth of 90% or higher. NO
